assayed.target: PAI-1 (Homo sapiens)
test.details: PAI chromogenic substrate assay (first S2251 assay, tPA/plasminogen system)
Type: biochemical
applied.conditions: Concentration 25 μm
Record form. Attribute: Inhibition of PAI-1 in the first S2251 chromogenic substrate assay. Fill in for each entry.
Give bare numbers, in %.

Examples from the recorded data:
> print(dat)
                                   compound        assayed.target  unit.string  quantitative.result
1  CC(=O)Oc1cccc(/C=c2\[nH]c(=O)/c(=C/c3ccccc3)[nH]c2=O)c1 [Compound 31]  PAI-1 (Homo sapiens)            %                    2
2  COc1ccc(/C=c2\[nH]c(=O)/c(=C/c3ccc(O)cc3Cl)[nH]c2=O)cc1 [Compound 84]  PAI-1 (Homo sapiens)            %                   10
3  COC(=O)COc1ccc(/C=c2\[nH]c(=O)/c(=C/c3ccccc3)[nH]c2=O)cc1 [Compound 93]  PAI-1 (Homo sapiens)            %                   39

Query string: Write down the reported Inhibition of PAI-1 in the first S2251 chromogenic substrate assay (system: PAI-1 (Homo sapiens)) of O=c1[nH]/c(=C\c2ccc(F)cc2F)c(=O)[nH]/c1=C\c1ccccc1 [Compound 54]
Result string: 1

----------
Task for the reader: assign each of the following molecules its reported Inhibition of PAI-1 in the first S2251 chromogenic substrate assay.
assayed.target: PAI-1 (Homo sapiens, UniProt P05121)
Sequence (P05121 24-402): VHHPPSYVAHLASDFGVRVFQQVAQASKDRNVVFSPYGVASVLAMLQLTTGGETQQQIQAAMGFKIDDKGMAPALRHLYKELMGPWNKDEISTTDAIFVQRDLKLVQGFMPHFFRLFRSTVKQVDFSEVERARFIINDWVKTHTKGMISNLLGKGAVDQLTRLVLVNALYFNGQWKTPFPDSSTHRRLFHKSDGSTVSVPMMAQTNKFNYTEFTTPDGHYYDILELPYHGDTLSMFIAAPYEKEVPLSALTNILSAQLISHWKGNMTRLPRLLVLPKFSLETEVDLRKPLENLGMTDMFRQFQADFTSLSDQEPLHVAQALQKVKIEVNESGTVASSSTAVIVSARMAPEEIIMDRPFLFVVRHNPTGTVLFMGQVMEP
test.details: PAI chromogenic substrate assay (first S2251 assay, tPA/plasminogen system)
Format: biochemical
applied.conditions: Concentration 50 μm
Give bare numbers, in %.

Here are 6 molecules together with their reported answers.
> print(dat)
                                   molecule                        assayed.target  quantitative.result
1  CC(=O)Nc1ccccc1/C=c1\[nH]c(=O)/c(=C/c2ccccc2)[nH]c1=O  PAI-1 (Homo sapiens, UniProt P05121)                    3
2  CC(=O)Nc1ccc(/C=c2\[nH]c(=O)/c(=C/c3ccc(N(C)C)cc3)[nH]c2=O)cc1  PAI-1 (Homo sapiens, UniProt P05121)                   37
3  CN(C)c1ccc(/C=c2\[nH]c(=O)/c(=C/c3ccccc3)[nH]c2=O)c2ccccc12  PAI-1 (Homo sapiens, UniProt P05121)                   55
4  COc1ccc(/C=c2\[nH]c(=O)/c(=C/c3ccc(OC(C)=O)cc3)[nH]c2=O)cc1  PAI-1 (Homo sapiens, UniProt P05121)                   19
5  O=c1[nH]/c(=C\c2c(Cl)cccc2Cl)c(=O)[nH]/c1=C\c1ccccc1  PAI-1 (Homo sapiens, UniProt P05121)                   35
6  CC(=O)NCc1ccc(/C=c2\[nH]c(=O)/c(=C/c3ccccc3)[nH]c2=O)cc1  PAI-1 (Homo sapiens, UniProt P05121)                    2

For every item in the list below, what is its measured Inhibition of PAI-1 in the first S2251 chromogenic substrate assay?
1. CC(=O)Oc1cccc(/C=c2\[nH]c(=O)/c(=C/c3ccccc3)[nH]c2=O)c1
2. COc1ccc(/C=c2\[nH]c(=O)/c(=C/c3ccc(O)cc3)[nH]c2=O)cc1

Result string:
[12, 6]

# batch size: 2; output Inhibition of PAI-1 in the first S2251 chromogenic substrate assay per entry
1. COc1ccc(/C=c2\[nH]c(=O)/c(=C/c3ccc(OC)c(OC)c3)[nH]c2=O)cc1
2. COc1ccc(/C=c2\[nH]c(=O)/c(=C/c3cccc(CSC(C)=O)c3)[nH]c2=O)cc1

Result string:
72
70

----------
Please go through the items and note down their Inhibition of PAI-1 in the first S2251 chromogenic substrate assay.
assayed.target: PAI-1 (Homo sapiens)
test.details: PAI chromogenic substrate assay (first S2251 assay, tPA/plasminogen system)
Type: biochemical
applied.conditions: Concentration 25 μm
Answers are plain numbers, in %.

Solved cases (3 shown):
> print(dat)
                  compound.structure.string  unit.string  quantitative.result
1  CC(=O)Nc1ccc(/C=c2\[nH]c(=O)/c(=C/c3ccc(N(C)C)cc3)[nH]c2=O)cc1            %                   48
2  CCCCOc1ccc(/C=c2\[nH]c(=O)/c(=C/c3ccccc3)[nH]c2=O)cc1            %                   26
3  COc1ccc(/C=c2\[nH]c(=O)/c(=C/c3c(Cl)cccc3Cl)[nH]c2=O)cc1            %                   34

Now let's try a different one.
Query string: Supply Inhibition of PAI-1 in the first S2251 chromogenic substrate assay value. Item: CSCc1ccc(/C=c2\[nH]c(=O)/c(=C/c3ccccc3)[nH]c2=O)cc1
Result string: 60

----------
For each record, write down the corresponding Inhibition of PAI-1 in the first S2251 chromogenic substrate assay.
assayed.target: PAI-1 (Homo sapiens)
test.details: PAI chromogenic substrate assay (first S2251 assay, tPA/plasminogen system)
Format: biochemical
applied.conditions: Concentration 3.75 μm
Give bare numbers, in %.

# example entries with known answers
> print(dat)
                  compound.structure.string  quantitative.result
1  CC(=O)Nc1ccc(/C=c2\[nH]c(=O)/c(=C/c3ccc(F)cc3)[nH]c2=O)cc1                    2
2  CC(=O)Nc1ccc(/C=c2\[nH]c(=O)/c(=C/c3ccc(Cl)cc3)[nH]c2=O)cc1                    1

Need Inhibition of PAI-1 in the first S2251 chromogenic substrate assay for each of these molecules.
1. O=c1[nH]/c(=C\c2cccc([N+](=O)[O-])c2)c(=O)[nH]/c1=C\c1ccccc1
2. CC(=O)Nc1ccc(/C=c2\[nH]c(=O)/c(=C/c3ccccc3F)[nH]c2=O)cc1

Result string:
0
1

----------
Hi there, I'd appreciate the recorded Inhibition of PAI-1 in the first S2251 chromogenic substrate assay for every entry that follows.
assayed.target: PAI-1 (Homo sapiens, UniProt P05121)
test.details: PAI chromogenic substrate assay (first S2251 assay, tPA/plasminogen system)
Type: biochemical
applied.conditions: Concentration 25 μm
Put your answer as a value accompanied by its unit after it.

> print(dat)
                                   molecule  result
1  COc1ccc(/C=c2\[nH]c(=O)/c(=C/c3ccc(C(N)=O)cc3)[nH]c2=O)cc1      1%
2  COc1ccc(/C=c2\[nH]c(=O)/c(=C/c3ccc(NC(=O)CO)cc3)[nH]c2=O)cc1     60%
3  COc1ccc(/C=c2\[nH]c(=O)/c(=C/c3ccccc3C(F)(F)F)[nH]c2=O)cc1     21%
4  COc1ccc(/C=c2\[nH]c(=O)/c(=C/c3ccc4ccccc4c3)[nH]c2=O)cc1      8%
5  CN(C)CCCOc1ccc(/C=c2\[nH]c(=O)/c(=C/c3ccccc3)[nH]c2=O)cc1 [Compound 98]     74%

Take each entry in turn and give its Inhibition of PAI-1 in the first S2251 chromogenic substrate assay.
1. CC(=O)Nc1ccc(/C=c2\[nH]c(=O)/c(=C/c3ccc(F)cc3F)[nH]c2=O)cc1
2. CC(=O)Nc1ccc(/C=c2\[nH]c(=O)/c(=C/c3ccc(COC(C)=O)cc3)[nH]c2=O)cc1
3. COc1ccc(/C=c2\[nH]c(=O)/c(=C/c3ccc(NC(C)=O)cc3)[nH]c2=O)cc1OC

Result string:
1. 80%
2. 1%
3. 38%

----------
assayed.target: PAI-1 (Homo sapiens)
test.details: PAI chromogenic substrate assay (first S2251 assay, tPA/plasminogen system)
Format: biochemical
applied.conditions: Concentration 100 μm
endpoint.label: Inhibition of PAI-1 in the first S2251 chromogenic substrate assay (%)
Numbers only, in %.

// solved cases for Inhibition of PAI-1 in the first S2251 chromogenic substrate assay follow
> print(dat)
                                   compound  quantitative.result
1  CC(=O)Nc1ccc(/C=c2\[nH]c(=O)/c(=C/c3ccccc3Br)[nH]c2=O)cc1 [Compound 79]                   42
2  COc1ccc(/C=c2\[nH]c(=O)/c(=C/c3ccc(CNC(=O)OC(C)(C)C)cc3)[nH]c2=O)cc1 [Compound 56]                   82
3  COc1ccc(/C=c2\[nH]c(=O)/c(=C/c3cccc(CSC(C)=O)c3)[nH]c2=O)cc1 [Compound 63]                   69

Query string: Give recorded Inhibition of PAI-1 in the first S2251 chromogenic substrate assay. CC(=O)NCc1ccc(/C=c2\[nH]c(=O)/c(=C/c3ccccc3)[nH]c2=O)cc1 [Compound 44]
Result string: 51
